Tested on: MS2 coat protein
Assay: apparent KD of MS2 coat protein; designed switch direction (-1 OFF switch, 1 ON switch): -1; higher = weaker reporter binding
Conditions: input ligand: microRNA oligo, concentration not stated
endpoint: apparent KD of MS2 coat protein (nM)
Give the value, in units of nM, as a plain number.

Entry AGAGAAUAGGUAGGAUAUCUUAAUAGAAAGAAUAGAGAAGGACCACAUGAGGAUCACCCAUGUGAUGUCUUGAGACUACAUGGU [Prohibition 32 - Jieux - Exclusion NG 1] (Eterna round: R96, puzzle: Exclusion NG 1) , system MS2 coat protein: what apparent KD of MS2 coat protein was measured? 13.3

Entry AAGAGGCGGACAGGAUAUGGGAAAUUGUAAAGACCAGAAGGGUCGGCGAAAAUACAUGAGGAUCACCCAUGUGACUCAUGACCA [AK ExNG1-7.1] (Eterna round: R96, puzzle: Exclusion NG 1) , system MS2 coat protein: what apparent KD of MS2 coat protein was measured? 311

###

Provide the recorded apparent KD of MS2 coat protein for the entries that follow.
System: MS2 coat protein
Test: apparent KD of MS2 coat protein; designed switch direction (-1 OFF switch, 1 ON switch): -1; higher = weaker reporter binding
Conditions: input ligand: FMN 200 uM
Answer as a quantity: numeral, then unit.

Fill in the blank: the reported apparent KD of MS2 coat protein of UUUGAGUUAGGAUAUGCCAAGUUGCACAUGAGGAUCACCCAUGUGAGGUGCCUUACUUAAGCAGAAGGAACAAUAA [EX5 C.13] (Eterna round: R97, puzzle: Exclusion 5) is ____. 22.1 nM

Fill in the blank: the reported apparent KD of MS2 coat protein of AAGUAACAUGAGGAUCACCCAUGUUAGGAUAUCUCGGCCGCGGCAUCGCCGCGAAACCAGAGAAGGAGCGGGUG [Erargeisar] (Eterna round: R97, puzzle: Exclusion 1) is ____. 206 nM

Fill in the blank: the reported apparent KD of MS2 coat protein of AAGGGUACUUUCAGAACGACAUGAGGAUCACCCAUGUAGACUGAGGAUAUCUACUACUAAGGACGGGAGAAGGCAGUGUAAUGU [Ex NG3 #73] (Eterna round: R96, puzzle: Exclusion NG 3) is ____. 13.8 nM

###

Test system: MS2 coat protein
Assay: apparent KD of MS2 coat protein; designed switch direction (-1 OFF switch, 1 ON switch): -1; higher = weaker reporter binding
Details: input ligand: none
endpoint: apparent KD of MS2 coat protein (nM)
Give the value, in units of nM, as a plain number.

Entry AGAGAAUAGUCAGGAUAUCUUAAUAGAAAGAAUAGAGAAGGGACACAUGAGGAUCACCCAUGUGAAGUCUUGAGACUACAUGGU [Prohibition 30 - Jieux - Exclusion NG 1] (Eterna round: R96, puzzle: Exclusion NG 1) , system MS2 coat protein: what apparent KD of MS2 coat protein was measured? 35.3

Entry UUUAAGGGAAUUAAGAUCACAUGAGGAUCACCCAUGUAUAUAUAGGAUAUCAGCUCGUGUAGAGCUGAGAAGGAUAUAUACAUA [ExNG3/6-A3] (Eterna round: R96, puzzle: Exclusion NG 3) , system MS2 coat protein: what apparent KD of MS2 coat protein was measured? 132

Entry GUCAGCUCGUGAGGAUAUACAUGAGGAUCACCCAUGUGGUCAAUAGCAGCUUCGGCUGCAUACAUGUAGAAGGCACGAGCUGAC [ENG2/7-A1] (Eterna round: R96, puzzle: Exclusion NG 2) , system MS2 coat protein: what apparent KD of MS2 coat protein was measured? 30.7

Entry GGUGAGCUAGGAUAUGCUUUGGGCUCGCAUUCCUUCGAUAAACUUGAGGAUCACCCAAGUAGAAGGAGCUUGCC [salish99_ex2_r4_032] (Eterna round: R97, puzzle: Exclusion 2) , system MS2 coat protein: what apparent KD of MS2 coat protein was measured? 15.8

Entry CCAGUGUAAGGAUAUCCGUUGCCGGAUAGAUGAUUAACAGCGGAGAAGGUACAUGAGGAUCACCCAUGUGUCCA [Eternabot (L1) Solution 8] (Eterna round: R97, puzzle: Exclusion 4) , system MS2 coat protein: what apparent KD of MS2 coat protein was measured? 20.9

Entry AAAAUUGUAGGAUAUUAGGCAGACAACAUGAGGAUCACCCAUGUCCGUGAUCUUAGGCACUGAGAAGGAUAAGCCU [Eternabot (Original) Solution 23] (Eterna round: R97, puzzle: Exclusion 5) , system MS2 coat protein: what apparent KD of MS2 coat protein was measured? 159

Entry GUCCAACAUGAGGAUCACCCAUGUCAGGAUAUGCGAAUUUCAUCAAAAGAUGAAAUUUGCAGAAGGGACUGGAC [Omei Ex1 A29] (Eterna round: R97, puzzle: Exclusion 1) , system MS2 coat protein: what apparent KD of MS2 coat protein was measured? 23.3

Entry GUUGUUACUGAGGAUAUUAUUUUAUUCGAUUGAUAAGAAGGCAGUACAUGAGGAUCACCCAUGUGGGUAGCUAG [Polaris20] (Eterna round: R97, puzzle: Exclusion 6) , system MS2 coat protein: what apparent KD of MS2 coat protein was measured? 95.5

Entry UUAAUUUUAGGAUAUACAUGAGGAUCACCCAUGUGGCGGGCCAUGAUGGAGCGUACCAGUAGAAGGAAGAACAG [Eternabot (L2) Solution 43] (Eterna round: R97, puzzle: Exclusion 3) , system MS2 coat protein: what apparent KD of MS2 coat protein was measured? 73.2

###

System: K4 kissing-loop RNA reporter;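 also: bound reporter read as fluorescence of individual clusters on recovered sequencing chips by microscopy, with normalized cluster intensities fitted with a binding model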
Test: apparent KD of K4 kissing-loop reporter; higher = weaker reporter binding
Conditions: Eterna round: R107; input ligand: FMN 200 uM
endpoint: apparent KD of K4 kissing-loop reporter (µM)
Give the value, in units of µM, as a plain number.

Fill in the blank: the reported apparent KD of K4 kissing-loop reporter of UUUAUAAUGUCGGCCGCCACUGGAUUAAUAUUUGUAUAAUCUAGUUCAAAGUGAUGUUUUGAGUCCAGGACCGGGACAUUUGUUA [JR_ExcTryptoB_Sub003] is ____. 0.57

Fill in the blank: the reported apparent KD of K4 kissing-loop reporter of AGCAUUAUCAGAAGGAGCGUGUAUAAUUCAAGAGAAUUGUUUUCGAGUGAUGUUCGUAAUACACAGGUAGGUCGCUGAUAUAGCA [JR_ExcArginiB_Sub001] is ____. 0.224

Fill in the blank: the reported apparent KD of K4 kissing-loop reporter of UUAGAUGAUUCAUCAAGAUUGAUGAGGAAACGAGGACCGGUACGGCCGCCACUCGAGUGAUGUUCGAGAACCUCAUCAAUCAAUU [AK4.4 Exc Tryptophan A] is ____. 0.162

Fill in the blank: the reported apparent KD of K4 kissing-loop reporter of UGUACCGAGUCAGGAUAUGGUAUACCGGAAACGGACCAGUGAUGUUGGAGGCGAAAGCCAUAAAAUCCAGAAGGGACUUGGUACU [FmnBS 19 #SwitchBubble #StaticStem #DoubleMagnetSystem] is ____. 0.223

Fill in the blank: the reported apparent KD of K4 kissing-loop reporter of GUAUAAAUAUAAGGAUAUGCAGGGAAAGUAAGAAUGGGUUAGUUGAACUUUAGUGAUGUUGAGGAAGCAGAAGGUGUAUAUGUGU [FMN B same state] is ____. 0.65

Fill in the blank: the reported apparent KD of K4 kissing-loop reporter of UUCCGGGCCGAAGGAUAUUGGAGUGAUGUUUCAAGACGUUCGUCCCAGCCCAUAGUAACUAUCGCCCAAGAAGGUCGUAUUGAAU [theeternabot_exclusion_KL_FMN_B_13] is ____. 0.227

Fill in the blank: the reported apparent KD of K4 kissing-loop reporter of AAGGUCACCACUACAGUGAUGUUGUAGGAGCAGGAUAUGCAGAAAUGCAGAAGGGCUCGCUCCAGGUGACCGAAUGAAACAUUCA [Omei KL FMN A SS A v4] is ____. 0.217

Fill in the blank: the reported apparent KD of K4 kissing-loop reporter of AGGGUAAGGCGUUAACAUGACACCUGGGAAGGAGCGCGGUACACCGCAGGUAGGUCGCCCAGUGAUGUUGGGUGUAAGUAUGAGU [KL-XArg-A23] is ____. 0.137

Fill in the blank: the reported apparent KD of K4 kissing-loop reporter of CGCAGUGAUGUUGCGAGUAGAUACAGGGAAGGAGCGCGGUAGUACGCAGGUAGGUCGCCCACGCAGUGAUGUUGCGUCAUAGGGU [Exclusion Arginine A GF6] is ____. 0.103

Fill in the blank: the reported apparent KD of K4 kissing-loop reporter of AUGAGGAGCAGUGAUCCUACUCCAUGGGAAGGAGCGUAGGAUACUACAGGUAGGUCGCCCAGUGAUGUUGGGCGCGUGCUCUUGG [Isatquesra] is ____. 0.14

Fill in the blank: the reported apparent KD of K4 kissing-loop reporter of AAAGAUCUUCUAGAAACUAGAAGAUCAAGAGAGGAUAUCCGAAUUCGGAGAAGGCUCGCUAAGUGAUGUUUGGACCCAAAGGGAA [AK3.1 SS FMN A] is ____. 1.1

Fill in the blank: the reported apparent KD of K4 kissing-loop reporter of AAGGCCAGUGAUGUUGGCUUAACCUUCGAUACCAGAACCGAUCGUUUCCCUUGGCAGCGAACACAAUACCUCACAGCGUUAAGUA [theeternabot_sameState_KL_Theo_A_8] is ____. 0.125

Fill in the blank: the reported apparent KD of K4 kissing-loop reporter of ACGUCUCGUAAACUCGUGGUUUCGAUCGAUACCAGUAGCGAGAGUUACCCUUGGCAGCGACAUGAGUGAUGUUCAUGUACGAAGA [KL-XTheoA2] is ____. 0.0993

Fill in the blank: the reported apparent KD of K4 kissing-loop reporter of GGAUGGUAGGCGGCCGCCACUAAAACAGAACACAUACAAGCCAGUGAUGUUGGUAUGAUGGUGUAUAGGACCGGGCCUAGAUAGA [Exclusion - Tryptophan B (Freestyle 5)] is ____. 0.197

Fill in the blank: the reported apparent KD of K4 kissing-loop reporter of CUGCAACAUAACUUCUUCGUCCUAGAAGACUAGGAUAUCAGGAAACUGAGAAGGAGUCUCUGCAGUGAUGUUGCAGUUAGGACGA [KL-SSFMN-A7] is ____. 0.139

Fill in the blank: the reported apparent KD of K4 kissing-loop reporter of AUAAACUUGCAGUGAUGUUGCAAGUAAGACUAGGAUAUCAGGAAACUGAGAAGGAGUCAUCUCCUUCAACUGCAAGAAUGAAGGA [[K1]-[K2]-[F1]-[F2]-[F]'-[K]'-[F]''_Design4] is ____. 0.147

Fill in the blank: the reported apparent KD of K4 kissing-loop reporter of UUGGUCUUUUAAGGAUAUCAUACUCCACUGAGCGAGUGAUGUUCGCUCCUGUUACGCCUGGGACCGUGAGAAGGUAAAGUACCGU [theeternabot_sameState_KL_FMN_B_5] is ____. 0.149

Fill in the blank: the reported apparent KD of K4 kissing-loop reporter of ACAUCGGUUGAGAGUGAUGUUCCUUGUGUUCGAGGACCGGUACGGCCGCCACUCGGGUAGAAAAUAACAGAUGUGUUUCAUUUUU [BDazzled - #17 SS Tryptophan A] is ____. 0.18

Fill in the blank: the reported apparent KD of K4 kissing-loop reporter of AGGAUCCGUCGACAAAAGUCGACAAUAACCAAGGAUAUGACGAAAGUCAGAAGGUGGUCUUAUGACCAGUGAUGUUGGUGGAUCC [FmnA 15 #SwitchBubble #K4Late] is ____. 0.891

Fill in the blank: the reported apparent KD of K4 kissing-loop reporter of CUUGGAAGGACGGCCGCCACUCGACAGUGAUGUUGUCCGAGUUGGUAACGCAGUGAUGUUGUGUCGAGGACCGGGUCCUAGGAAU [Exclusion Tryptophan B GF 26] is ____. 0.199

Fill in the blank: the reported apparent KD of K4 kissing-loop reporter of GCCGUACGCAUGGAUACCAGCACAGGCCGAAGUGAUGUUUCGUGCGUAUAUUUGUGCUACUGCCCUUGGCAGCCAUGCGUACGGC is ____. 0.0758

Fill in the blank: the reported apparent KD of K4 kissing-loop reporter of AAAUGACAAGUAAUAAAGAAAAGCGGCGAUACCAGUAAGAACGUAUACCCUUGGCAGCGCAUAUUAGAGUGAUGUUCUAAUCCGA [theeternabot_sameState_KL_Theo_A_25] is ____. 0.129

Hello, the source for this data is the supplement of paper PMC9170038, in case you need it.
